- Protocol Summary: Displacement of [3H]BTX from sodium channel in rat cerebral cortex synaptosomal membrane
- Format: tissue-based
A collection of molecules and their measured IC50
Measured Metric: IC50 (nM)

Smiles Code	Measured Metric	Measurement
CCCCOC(=O)NCCc1nc(-c2ccc(Br)cc2)c[nH]1	IC50	210
CC(C)(C)COC(=O)NCCc1nc(-c2ccc(-c3ccccc3)cc2)c[nH]1	IC50	372
CCCCOC(=O)NCCc1nc(-c2ccc(C3CCCCC3)cc2)c[nH]1	IC50	7
O=C(NCCc1nc(-c2ccc(-c3ccccc3)cc2)c[nH]1)OC1CCCC1	IC50	52
CCCCCCOC(=O)NCCc1nc(-c2ccc(-c3ccccc3)cc2)c[nH]1	IC50	15
CCCCOC(=O)NCCc1nc(-c2ccc(N3CCCC3)cc2)c[nH]1	IC50	14
CCCCOC(=O)NCCc1nc(-c2ccc(CC)cc2)c[nH]1	IC50	96
CCOC(=O)NCCc1nc(-c2ccc(-c3ccccc3)cc2)c[nH]1	IC50	71
CC(C)(C)OC(=O)NCCCc1nc(-c2ccc(-c3ccccc3)cc2)c[nH]1	IC50	184
O=C(NCCc1nc(-c2ccc(-c3ccccc3)cc2)c[nH]1)OCC1CCCCC1	IC50	21

* * *

A collection of compounds and their measured IC50
- Protocol Summary: Displacement of [3H]BTX from sodium channel in rat cerebral cortex synaptosomal membrane
- Assay type: tissue-based
Measured Metric: IC50 (nM)

Smiles Code	Measurement
O=C(NCCc1nc(-c2ccc(-c3ccccc3)cc2)c[nH]1)OC1CCCCC1	26
CC(C)(C)OC(=O)NCCc1nc(-c2ccc(-c3ccccc3)cc2)c[nH]1	64
CCCCOC(=O)NCCc1nc(-c2ccc(C(F)(F)F)cc2)c[nH]1	453
CC(C)COC(=O)NCCc1nc(-c2ccc(-c3ccccc3)cc2)c[nH]1	26
CC(C)(C)OC(=O)NCc1nc(-c2ccc(-c3ccccc3)cc2)c[nH]1	144
CCCCOC(=O)NCCc1nc(-c2ccc(F)cc2)c[nH]1	1000
COC(=O)NCCc1nc(-c2ccc(-c3ccccc3)cc2)c[nH]1	282
CCCCOC(=O)NCCc1nc(-c2ccc(CC(C)C)cc2)c[nH]1	41
CCCCOC(=O)NCCc1nc(-c2ccc(CCC)cc2)c[nH]1	62
CCCOC(=O)NCCc1nc(-c2ccc(-c3ccccc3)cc2)c[nH]1	86
CCCCOC(=O)NCCc1nc(-c2ccc(-c3ccccc3)cc2)c[nH]1	32
